# measurement target: T1, monkey GITR (full length, on cells) (monkey)
# T1 construct: whole, on cells; also called cGITR
# assay comment: flow cytometry (FACS) on 293F-cGITR cells, MFI curve fit
recorded metric: pEC50
Notebook: values listed as pEC50 are -log10 of the concentration (mol/L).

1) 3503-mAb070 (antibody, V domains shown, Chimeric antibody purified from hybridoma supernatant of Harbour H2L2 mice: human variable regions with rat constant regions; also called 272G5E1; chimeric anti-GITR antibody) VH: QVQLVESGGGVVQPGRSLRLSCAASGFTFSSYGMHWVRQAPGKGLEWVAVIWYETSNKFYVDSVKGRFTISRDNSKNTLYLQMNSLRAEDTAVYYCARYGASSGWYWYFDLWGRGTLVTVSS VL: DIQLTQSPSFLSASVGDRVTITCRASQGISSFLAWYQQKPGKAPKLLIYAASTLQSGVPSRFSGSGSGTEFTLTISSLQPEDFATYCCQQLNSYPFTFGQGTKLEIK	9.70

# input Data request, read-out pEC50, for 3503-hab070 (antibody, V domains shown, also called 272G5E1; fully human anti-GITR antibody) VH: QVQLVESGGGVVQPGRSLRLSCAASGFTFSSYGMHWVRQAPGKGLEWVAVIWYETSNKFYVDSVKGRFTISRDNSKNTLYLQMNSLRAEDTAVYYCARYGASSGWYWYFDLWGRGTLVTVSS VL: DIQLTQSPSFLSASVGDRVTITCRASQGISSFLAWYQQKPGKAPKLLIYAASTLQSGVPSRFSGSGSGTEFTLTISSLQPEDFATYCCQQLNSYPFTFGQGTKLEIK
# output 9.59

# input And 3503-mAb064 (antibody, V domains shown, Chimeric antibody purified from hybridoma supernatant of Harbour H2L2 mice: human variable regions with rat constant regions; also called 265G9A11; chimeric anti-GITR antibody) VH: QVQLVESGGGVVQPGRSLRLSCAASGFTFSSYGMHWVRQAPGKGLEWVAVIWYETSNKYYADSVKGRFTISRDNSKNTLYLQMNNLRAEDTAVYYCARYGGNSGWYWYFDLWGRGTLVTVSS VL: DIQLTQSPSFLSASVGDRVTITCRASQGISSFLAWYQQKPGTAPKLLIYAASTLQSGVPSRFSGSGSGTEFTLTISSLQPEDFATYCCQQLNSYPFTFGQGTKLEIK ?
# output 9.39

# input Let us now turn to 3503-mAb076 (antibody, V domains shown, Chimeric antibody purified from hybridoma supernatant of Harbour H2L2 mice: human variable regions with rat constant regions; also called 277C12G4; chimeric anti-GITR antibody) VH: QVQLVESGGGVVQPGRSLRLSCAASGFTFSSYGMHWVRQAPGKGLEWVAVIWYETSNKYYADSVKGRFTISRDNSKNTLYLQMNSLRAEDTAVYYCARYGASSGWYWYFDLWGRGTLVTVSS VL: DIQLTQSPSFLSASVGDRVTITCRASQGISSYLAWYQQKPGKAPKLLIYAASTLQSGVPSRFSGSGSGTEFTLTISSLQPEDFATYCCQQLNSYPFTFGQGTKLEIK
# output 9.65

# input Next: 3503-hab070e1 (antibody, V domains shown, also called 272G5E1; engineered fully human anti-GITR antibody) VH: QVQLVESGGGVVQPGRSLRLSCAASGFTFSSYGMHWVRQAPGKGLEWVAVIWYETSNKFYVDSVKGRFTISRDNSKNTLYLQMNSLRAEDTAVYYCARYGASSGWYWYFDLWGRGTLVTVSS VL: DIQLTQSPSFLSASVGDRVTITCRASQGISSFLAWYQQKPGKAPKLLIYAASTLQSGVPSRFSGSGSGTEFTLTISSLQPEDFATYYCQQLNSYPFTFGQGTKLEIK
# output 9.58
